test system: MT4; assay: Compound was tested for reduction of the viability of mock infected MT-4 cell in test-I; assay type: functional; details: Homo sapiens
Observable: CC50

INSERT INTO results (smiles_string, observable, result) VALUES
  ('NCCCC[C@@H]1NC(=O)[C@H](CCCN=C(N)N)NC(=O)[C@H](Cc2ccc(O)cc2)NC(=O)[C@@H](NC(=O)[C@H](Cc2ccc3ccccc3c2)NC(=O)[C@H](CCCN=C(N)N)NC(=O)[C@@H](N)CCCN=C(N)N)CSSC[C@@H](C(=O)N[C@@H](CCCNC(N)=O)C(=O)O)NC(=O)[C@H](CCCNC(N)=O)NC(=O)[C@H](CCCN=C(N)N)NC(=O)[C@H](Cc2ccc(O)cc2)NC(=O)[C@@H]2CCCN2C(=O)[C@@H](CCCCN)NC1=O', 'CC50', '> 40 µM'),
  ('C[C@@H]1NC(=O)[C@H](CCCN=C(N)N)NC(=O)[C@H](Cc2ccc(O)cc2)NC(=O)[C@@H](NC(=O)[C@H](Cc2ccc3ccccc3c2)NC(=O)[C@H](CCCN=C(N)N)NC(=O)[C@@H](N)CCCN=C(N)N)CSSC[C@@H](C(=O)N[C@@H](CCCN=C(N)N)C(=O)O)NC(=O)[C@H](CCCNC(N)=O)NC(=O)[C@H](CCCN=C(N)N)NC(=O)[C@H](Cc2ccc(O)cc2)NC(=O)[C@@H]2CCCN2C(=O)[C@@H](CCCCN)NC1=O', 'CC50', '> 80 µM'),
  ('NCCCC[C@@H]1NC(=O)[C@H](CCCN=C(N)N)NC(=O)[C@H](Cc2ccc(O)cc2)NC(=O)[C@@H](NC(=O)[C@H](Cc2ccc3ccccc3c2)NC(=O)[C@H](CCCN=C(N)N)NC(=O)[C@@H](N)CCCN=C(N)N)CSSC[C@@H](C(=O)N[C@@H](CCCN=C(N)N)C(=O)O)NC(=O)[C@H](CCCNC(N)=O)NC(=O)[C@H](CCCNC(N)=O)NC(=O)[C@H](Cc2ccc(O)cc2)NC(=O)[C@@H]2CCCN2C(=O)[C@@H](CCCCN)NC1=O', 'CC50', '> 80 µM');
